target: recombinant human ACC2 (rhACC2) (Homo sapiens, UniProt O00763, V2141I); construct: a full length Cytomax clone of ACC2 was purchased from Cambridge Bioscience Limited; experiment: recombinant hACC2 Transcreener assay (direct inhibition of ACC2 activity); details: Transcreener ADP detection FP assay, 50 μM ATP, 30 μM acetyl-CoA, 50 min at 25° C.
Sequence (O00763 whole entry V2141I): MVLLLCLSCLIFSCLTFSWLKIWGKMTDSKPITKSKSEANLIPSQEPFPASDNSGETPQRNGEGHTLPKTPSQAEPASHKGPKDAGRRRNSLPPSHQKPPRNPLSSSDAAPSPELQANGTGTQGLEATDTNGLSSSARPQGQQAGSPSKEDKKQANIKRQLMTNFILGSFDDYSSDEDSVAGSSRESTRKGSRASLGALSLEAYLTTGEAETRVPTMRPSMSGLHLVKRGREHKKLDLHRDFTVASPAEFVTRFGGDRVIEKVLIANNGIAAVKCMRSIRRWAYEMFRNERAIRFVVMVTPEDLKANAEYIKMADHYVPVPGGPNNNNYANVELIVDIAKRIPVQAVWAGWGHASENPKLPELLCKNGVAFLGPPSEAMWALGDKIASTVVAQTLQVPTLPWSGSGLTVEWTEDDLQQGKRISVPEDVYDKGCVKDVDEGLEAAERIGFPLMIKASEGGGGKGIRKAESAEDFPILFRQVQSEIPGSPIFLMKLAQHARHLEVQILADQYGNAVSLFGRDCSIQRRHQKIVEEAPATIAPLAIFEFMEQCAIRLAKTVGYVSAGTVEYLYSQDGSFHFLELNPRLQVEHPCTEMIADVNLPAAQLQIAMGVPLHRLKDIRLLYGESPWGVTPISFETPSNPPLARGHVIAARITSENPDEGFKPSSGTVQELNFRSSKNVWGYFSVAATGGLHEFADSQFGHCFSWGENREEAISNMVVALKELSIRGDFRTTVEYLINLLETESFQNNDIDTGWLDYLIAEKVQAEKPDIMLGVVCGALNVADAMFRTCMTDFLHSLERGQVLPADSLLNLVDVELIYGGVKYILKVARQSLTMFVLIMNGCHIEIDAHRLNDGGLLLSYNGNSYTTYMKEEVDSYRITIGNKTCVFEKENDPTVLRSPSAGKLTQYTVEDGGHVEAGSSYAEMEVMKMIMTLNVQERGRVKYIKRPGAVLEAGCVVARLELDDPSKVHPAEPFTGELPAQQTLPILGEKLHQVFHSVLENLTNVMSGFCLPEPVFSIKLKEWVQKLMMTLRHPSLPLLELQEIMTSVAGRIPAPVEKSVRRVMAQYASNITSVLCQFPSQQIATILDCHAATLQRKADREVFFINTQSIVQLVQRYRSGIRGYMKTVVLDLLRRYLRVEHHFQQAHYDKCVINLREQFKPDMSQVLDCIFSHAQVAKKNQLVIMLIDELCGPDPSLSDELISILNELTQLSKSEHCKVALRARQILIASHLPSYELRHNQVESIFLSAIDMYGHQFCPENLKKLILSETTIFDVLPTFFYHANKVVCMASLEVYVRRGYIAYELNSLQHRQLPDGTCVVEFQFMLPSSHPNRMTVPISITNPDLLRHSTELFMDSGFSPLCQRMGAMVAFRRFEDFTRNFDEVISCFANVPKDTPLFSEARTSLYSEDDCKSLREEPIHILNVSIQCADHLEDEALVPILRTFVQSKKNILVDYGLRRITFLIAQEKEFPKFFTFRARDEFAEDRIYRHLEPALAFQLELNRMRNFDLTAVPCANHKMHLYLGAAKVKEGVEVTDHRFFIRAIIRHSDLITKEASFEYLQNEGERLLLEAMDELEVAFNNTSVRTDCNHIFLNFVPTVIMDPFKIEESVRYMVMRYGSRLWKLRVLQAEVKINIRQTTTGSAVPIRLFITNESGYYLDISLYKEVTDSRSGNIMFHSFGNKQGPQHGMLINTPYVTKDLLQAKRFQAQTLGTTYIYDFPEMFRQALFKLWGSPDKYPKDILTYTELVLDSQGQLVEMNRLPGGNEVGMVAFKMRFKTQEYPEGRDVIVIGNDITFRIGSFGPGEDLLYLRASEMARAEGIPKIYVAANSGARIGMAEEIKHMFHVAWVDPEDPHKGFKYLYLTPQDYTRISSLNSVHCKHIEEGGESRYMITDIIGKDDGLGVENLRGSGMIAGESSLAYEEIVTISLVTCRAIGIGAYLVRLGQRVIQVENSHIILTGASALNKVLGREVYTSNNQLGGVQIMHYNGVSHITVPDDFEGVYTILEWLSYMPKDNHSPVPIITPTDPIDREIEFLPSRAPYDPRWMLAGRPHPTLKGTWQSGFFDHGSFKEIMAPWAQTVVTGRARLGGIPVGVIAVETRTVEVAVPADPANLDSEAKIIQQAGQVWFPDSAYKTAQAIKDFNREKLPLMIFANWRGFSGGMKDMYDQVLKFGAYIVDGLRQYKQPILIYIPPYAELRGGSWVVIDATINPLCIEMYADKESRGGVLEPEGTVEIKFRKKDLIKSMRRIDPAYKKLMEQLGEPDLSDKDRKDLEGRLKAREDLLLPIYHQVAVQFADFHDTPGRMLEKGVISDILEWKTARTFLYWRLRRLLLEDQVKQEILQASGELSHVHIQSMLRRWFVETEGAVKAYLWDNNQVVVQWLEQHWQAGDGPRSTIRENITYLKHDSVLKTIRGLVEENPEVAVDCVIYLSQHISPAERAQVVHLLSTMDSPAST
observed property: pIC50
Remember, pIC50 is on a log scale: it is -log10 of the molar concentration.

Reference set, count: 3
>  <compound>
CC(C)(C)n1ncc2c1C(=O)CC1(CCN(C(=O)c3ccc4c(c3)CC(=O)N4)CC1)C2

>  <test system>
recombinant human ACC2 (rhACC2) (Homo sapiens, UniProt O00763, V2141I)

>  <pIC50>
7.29

$$$$
>  <compound>
CC(C)n1ncc2c1C(=O)CC1(CCN(C(=O)c3ccc4c(c3)CC(=O)N4)CC1)C2

>  <test system>
recombinant human ACC2 (rhACC2) (Homo sapiens, UniProt O00763, V2141I)

>  <pIC50>
7.04

$$$$
>  <compound>
Cc1ncc(C(=O)N2CCC3(CC2)CC(=O)c2c(cnn2C(C)C)C3)c(N)n1

>  <test system>
recombinant human ACC2 (rhACC2) (Homo sapiens, UniProt O00763, V2141I)

>  <pIC50>
6.11

$$$$

Would you kindly share the measured pIC50 for CC(C)n1ncc2c1C(=O)CC1(CCN(C(=O)c3c[nH]c4ccnn4c3=O)CC1)C2 [Example 11A-35] ? 5.67

Entry CC(C)(C)n1ncc2c1C(=O)CC1(CCN(C(=O)c3cnc4ccnn4c3N)CC1)C2 has what pIC50? 6.83

Which pIC50 reading was recorded for the compound CC(C)(C)n1nc(C#N)c2c1C(=O)CC1(CCN(C(=O)c3ccc4[nH]ncc4c3)CC1)C2 [Example 2A-78] ? 5.90

I would be grateful if you could share the reported pIC50 for CC(C)n1ncc2c1C(=O)CC1(CCN(C(=O)c3cnc4c(cnn4C)c3N)CC1)C2 . 7.13

Return reported pIC50; argument: CC(C)n1ncc2c1C(=O)C(C)(C)C1(CCN(C(=O)c3ccc4[nH]ncc4c3)CC1)C2 6.43

Requested field: pIC50. Item: CCCn1ncc2c1C(=O)CC1(CCN(C(=O)c3ccc(Cl)c(C)c3)CC1)C2 5.73

Fill blank: measured pIC50 of the compound CC(C)n1ncc2c1C(=O)CC1(CCN(C(=O)c3ccc4[nH]nc(C#N)c4c3)CC1)C2 [Example 11A-9] is ____. 7.71

Value lookup for pIC50; key = CC(C)n1ncc2c1C(=O)C(C)C1(CCN(C(=O)c3ccc4[nH]ncc4c3)CC1)C2 (racemic) [Example 4A-1] 6.90

Suppose we examine the compound CC(C)(C)n1ncc2c1C(=O)CC1(CCN(C(=O)c3cn4cccc4cn3)CC1)C2 [Example 11A-45] ; what pIC50 value has been reported? 6.13

I have this compound here, CC(C)n1ncc2c1C(=O)CC1(CCN(C(=O)c3ccc(N4CCOCC4)nc3)CC1)C2 [Example 11A-24] , and I need its recorded pIC50. 6.08

Which pIC50 is reported for this compound? CC(C)(C)n1ncc2c1C(=O)CC1(CCN(C(=O)c3ccc(-n4cccn4)nc3)CC1)C2 [Example 11A-59] 7.10

Which pIC50 is listed for CC(C)n1ncc2c1C(=O)CC1(CCN(C(=O)c3ccc4c(c3)[nH]c(=O)n4C)CC1)C2 ? 7.53

Which measured pIC50 value corresponds to Cc1ccn2cc(C(=O)N3CCC4(CC3)CC(=O)c3c(cnn3C(C)(C)C)C4)nc2c1 [Example 11A-27] ? 6.51
